Molecular target: T1, hIL-18Rα ECD-Fc fusion protein (human, UniProt Q13478 22-329)
T1 construct: extracellular domain; captured on Protein A sensor
T1 sequence (looked up): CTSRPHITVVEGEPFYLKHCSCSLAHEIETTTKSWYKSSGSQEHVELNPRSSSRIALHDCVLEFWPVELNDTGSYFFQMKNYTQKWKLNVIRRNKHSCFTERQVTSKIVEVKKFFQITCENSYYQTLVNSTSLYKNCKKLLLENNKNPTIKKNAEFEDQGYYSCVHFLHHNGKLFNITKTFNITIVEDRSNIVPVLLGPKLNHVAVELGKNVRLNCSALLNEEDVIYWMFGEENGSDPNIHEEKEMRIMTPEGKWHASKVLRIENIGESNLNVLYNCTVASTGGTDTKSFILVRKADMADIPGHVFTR
Assay: BLI (Octet RED96), hIL-18Rα ECD-Fc on Protein A sensor
Task for the reader: assign each of the following binders its reported pKd.
Answers are plain numbers, as −log10 of the molar value.

binder	pKd
IL-18 variant polypeptide M5 (ligand) YFEKLTSKLSVIRNLNDQVLFIDQGNRPLFEDMTDSDCRDNAPRTIFIISMYKWSPWRGMAVTISVKCEKISTLSCENKIISFKEMNPPDVIKDTKSDIIFFQTSVPGHDNKMQFESSSYEGYFLACEKERDLFKLILKKEDELGDRSIMFTVQKED	7.41
IL-18 variant polypeptide LM3 (ligand, soluble, E. coli-made) YFPKLRSKLSIIRNLNDQVLFIDQGNRPLFEDMTDSDCRDNAPRTIFIISMYKGSGARGMAVTISVKCEKISTLSCENKIISFKEMNPPDGIKDTKSDIIFFQRSVPGHDNKMQFESSSYEGYFLACEKERDLFKLILKKEDELGDRSIMFTVQNED	7.84
IL-18 variant polypeptide M18 (ligand) YFPKLRSKLSVIRNLNDQVLFIDQGNRPLFEDMTDSDCRDNAPRTIFIISMYKSSRRRGMAVTISVKCEKISTLSCENKIISFKEMNPPDGIKDTKSDIIFFQSSVPGHDNKMQFESSSYEGYFLACEKERDLFKLILKKEDELGDRSIMFTVQNED	7.48
IL-18 variant polypeptide M32 (ligand) YFPKLGSKLSVIRNLNDQVLFIDQGNRPLFEDMTDSDCRDNAPRTIFIISMYKSSSRRGMAVTISVKCEKISTLSCENKIISFKEMNPPDNIKDTKSDIIFFQRSVPGHDNKMQFESSSYEGYFLACEKERDLFKLILKKEDELGDRSIMFTVQNED	7.76
IL-18 variant polypeptide M2 (ligand) YFSKLKSKLSVIRNLNDQVLFIDQGNRPLFEDMTDSDCRDNAPRTIFIISMYKWSPDRGMAVTISVKCEKISTLSCENKIISFKEMNPPDGIKDTKSDIIFFQTSVPGHDNKMQFESSSYEGYFLACEKERDLFKLILKKEDELGDRSIMFTVQNED	4.91

Batch of 6 binders: report pKd for each.
1. IL-18 variant polypeptide M4 (ligand) YFPKLKSKLSVIRNLNDQVLFIDQGNRPLFEDMTDSDCRDNAPRTIFIISMYKWSGVRGMAVTISVKCEKISTLSCENKIISFKEMNPPDVIKDTKSDIIFFQFSVPGHDNKMQFESSSYEGYFLACEKERDLFKLILKKEDELGDRSIMFTVQNED
2. IL-18 variant polypeptide M22 (ligand) YFPKLRSKLSVIRNLNDQVLFIDQGNRPLFEDMTDSDCRDNAPRTIFIISMYKYSRGRGMAVTISVKCEKISTLSCENKIISFKEMNPPDKIKDTKSDIIFFQSSVPGHDNKMQFESSSYEGYFLACEKERDLFKLILKKEDELGDRSIMFTVQNED
3. IL-18 variant polypeptide M25 (ligand) YFPKLRSKLSVIRNLNDQVLFIDQGNRPLFEDMTDSDCRDNAPRTIFIISMYKLSTTRGMAVTISVKCEKISTLSCENKIISFKEMNPPDRIKDTKSDIIFFQRSVPGHDNKMQFESSSYEGYFLACEKERDLFKLILKKEDELGDRSIMFTVQNED
4. IL-18 variant polypeptide M19 (ligand) YFPKLKSKLSVIRNLNDQVLFIDQGNRPLFEDMTDSDCRDNAPRTIFIISMYKHSEQRGMAVTISVKCEKISTLSCENKIISFKEMNPPDAIKDTKSDIIFFQRSVPGHDNKMQFESSSYEGYFLACEKERDLFKLILKKEDELGDRSIMFTVQNED
5. IL-18 variant polypeptide M12 (ligand) YFPKLKSKLSVIRNLNDQVLFIDQGNRPLFEDMTDSDCRDNAPRTIFIISMYKGSGARGMAVTISVKCEKISTLSCENKIISFKEMNPPDTIKDTKSDIIFFQRSVPGHDNKMQFESSSYEGYFLACEKERDLFKLILKKEDELGDRSIMFTVQNED
6. IL-18 variant polypeptide M28 (ligand) YFPKLASKLSVIRNLNDQVLFIDQGNRPLFEDMTDSDCRDNAPRTIFIISMYKWSGGRGMAVTISVKCEKISTLSCENKIISFKEMNPPDVIKDTKSDIIFFQYSVPGHDNKMQFESSSYEGYFLACEKERDLFKLILKKEDELGDRSIMFTVQNED

Reply:
[7.41, 5.39, 7.36, 6.95, 7.60, 7.52]

For each of the binders below, note its pKd.
1. IL-18 variant polypeptide MM4 (ligand, soluble, E. coli-made) YFPKLRSKLSVIRNLNDQVLFIDQGNRPLFEDMTDSDCRDNAPRTIFIISMYKLSTIRGMAVTISVKCEKISTLSCENKIISFKEMNPPDGIKDTKSDIIFFQRSVPGHDNKMQFESSSYEGYFLACEKERDLFKLILKKEDELGDRSIMFTVQNED
2. IL-18 variant polypeptide M24 (ligand) YFPKLRSKLSVIRNLNDQVLFIDQGNRPLFEDMTDSDCRDNAPRTIFIISMYKYSTSRGMAVTISVKCEKISTLSCENKIISFKEMNPPDNIKDTKSDIIFFQRSVPGHDNKMQFESSSYEGYFLACEKERDLFKLILKKEDELGDRSIMFTVQNED

Reply:
1: 8.01; 2: 6.03

From: patent US20260092093A1
